Each entry below carries its reported Papp A→B.
- experimental-details: Apparent permeability from apical to basolateral side of human Caco2 cells
- Assay type: ADME, cell-based
- assay-context: Caco-2
Write the number in ×10⁻⁶ cm/s without appending the unit.

INSERT INTO measurements (chem_smiles, recorded_value) VALUES
  ('O=C(O)COc1ccc(Cl)cc1CN1CCN(S(=O)(=O)c2ccccc2)CC1', 1.7);

Exercise: Answer with the recorded Papp A→B for the molecule listed here: C[C@H]1CN(Cc2cc(Cl)ccc2OCC(=O)O)CCN1C(=O)Cc1ccc(Cl)cc1
Solution: 5.8

* * *

Each entry below carries its reported bioavailability.
- experimental-details: Oral bioavailability in rat at 3 mg/kg, po
- Format: ADME, organism-based
- assay-context: in vivo
Write the number in % without appending the unit.

INSERT INTO results (chem_smiles, recorded_value) VALUES
  ('C[C@H]1CN(Cc2cc(Cl)ccc2CC(=O)O)CCN1C(=O)Cc1ccc(Cl)cc1', 110);

Kindly review the next compound as well.
Exercise: Answer with the recorded bioavailability for the compound listed here: C[C@H]1CN(Cc2cc(Cl)ccc2OCC(=O)O)CCN1C(=O)Cc1ccc(Cl)cc1
Solution: 22
